tested on: HL-60(TB) leukemia; assay: NCI tumour cell line growth inhibition, 48 h
ENDPOINT LABEL: log10 TGI (log10 of the value in µM)
Base-10 log of TGI, unit µM.

Observe how each entry below is paired with its result.
COMPOUND: ICCC(c1ccccc1)(c1ccccc1)c1ccccc1
log10 TGI: 0.59
//
COMPOUND: COC(=O)c1ccc2c(c1)C(=O)c1c-2n(CCCN)c(=O)c2cc([N+](=O)[O-])ccc12
log10 TGI: 0.14
//
COMPOUND: Cc1ccc(C2(O)CC(c3ccc([N+](=O)[O-])o3)=NN2C(=O)COc2ccccc2Cl)cc1 (stereo not given)
log10 TGI: 1.11

Below are some compounds; for each one, tell me its log10 TGI.
1. Nc1ncnc2c(C3OC(CO)C(O)C3O)[nH]nc12 (stereo not given)
2. CC1(C)CC(OCCCC[P+](c2ccccc2)(c2ccccc2)c2ccccc2)CC(C)(C)N1O
3. Cc1cc(N(CCCCl)CCCCl)ccc1C=Nc1cccc(Cl)c1

Result:
[-0.95, -0.38, 1.58]

---

tested on: NCI-H226 lung; assay: NCI tumour cell line growth inhibition, 48 h
ENDPOINT LABEL: TGI

COMPOUND: COc1cc2nc(-c3ccccc3F)[nH]c(=O)c2cc1OC
ASSAYED TARGET: NCI-H226 lung
TGI: > 100 µM

COMPOUND: CCCCCCCCCC1C(C)c2c([nH]c3ccccc23)C2C(=O)N(c3ccccc3)C(=O)C21 (stereo not given)
ASSAYED TARGET: NCI-H226 lung
TGI: 24.9 µM

COMPOUND: CCCCCCCCCCCCCCCCOCC(COP(=O)([O-])OCC[n+]1ccc(N(C)C)cc1)OCC (stereo not given)
ASSAYED TARGET: NCI-H226 lung
TGI: 33.7 µM

COMPOUND: Cc1nc(-c2nc(C)c(C(=O)NN(C)C)s2)sc1C(=O)NN(C)C
ASSAYED TARGET: NCI-H226 lung
TGI: > 100 µM

Would you kindly look at the next entry?
Ask: Hi! What's the reported TGI for O=C1Nc2cc([N+](=O)[O-])ccc2C(=O)N2CCC[C@@H]12 on NCI-H226 lung?
Result: > 100 µM

---

tested on: NCI-H522 lung; assay: NCI tumour cell line growth inhibition, 48 h
I'd be grateful if you could share measured TGI for these entries.

Observe how each entry below is paired with its result.
COMPOUND: CC1=CC2=C(C(N)=O)C(=O)OC2(C)C(c2ccccc2)C1 (stereo unspecified)
VALUE: > 100 µM
--
COMPOUND: C[C@]12CCC3c4ccc(O)cc4CCC3C1Cc1ccc(O)cc12 (stereo partly specified)
VALUE: 12.8 µM
--
COMPOUND: Nc1ccn(C2CC(O)C(CO)O2)c(=O)n1 (stereo unspecified)
VALUE: > 5000 µM

Below are some compounds; for each one, tell me its TGI.
1. CCN(CC)CCn1c2cc3c(cc2c(=O)c2cccnc21)OCO3
2. COc1ccc2nc(NC(=O)C(=O)C(C(=O)c3ccccc3-c3ccccc3)C3OC(=O)c4ccccc43)sc2c1 (stereo unspecified)
3. O=C(O)CCCSc1nc2ccccc2s1

Result:
> 10 µM
23.8 µM
> 100 µM

---

I'd be grateful if you could share measured GI50 for these entries.
test system: PC-3 prostate; assay: NCI tumour cell line growth inhibition, 48 h

Observe how each entry below is paired with its result.
COMPOUND: O=C(O)C[O][Sb][O]CC(=O)O
GI50: > 100 µM
//
COMPOUND: O=C(OCC1OC(OC(=O)c2cc(O)c(O)c(OC(=O)c3cc(O)c(O)c(O)c3)c2)C(OC(=O)c2cc(O)c(O)c(OC(=O)c3cc(O)c(O)c(O)c3)c2)C(OC(=O)c2cc(O)c(O)c(OC(=O)c3cc(O)c(O)c(O)c3)c2)C1OC(=O)c1cc(O)c(O)c(OC(=O)c2cc(O)c(O)c(O)c2)c1)c1cc(O)c(O)c(OC(=O)c2cc(O)c(O)c(O)c2)c1 (stereo not drawn)
GI50: 10.1 µM
//
COMPOUND: COc1ccc2[nH]c(=O)c(/C=C/C(=O)/C=C/c3ccc(O)c(OC)c3)cc2c1
GI50: 1.83 µM

Below are some compounds; for each one, tell me its GI50.
1. C#C[C@@]1(O)[C@@H](CO)O[C@@H](n2ccc3c(N)ncnc32)[C@@H]1O
2. COc1cc(Cn2ccc3c2-c2oncc2CC3)cc(OC)c1
3. ICCC(c1ccccc1)(c1ccccc1)c1ccccc1
4. O=C(NNc1ccccc1)OCc1ccccc1
5. Cc1ccc(N=Nc2c(N)nn(-c3ccccc3)c2N)cc1

Result:
1: 0.808 µM; 2: 11 µM; 3: 4.32 µM; 4: 5.35 µM; 5: 1.53 µM

---

test system: HCT-116 colon; assay: NCI tumour cell line growth inhibition, 48 h; in the data active = GI50 below about 0.43 µM; inactive = the rest
The categories you may choose from are 1 (yes) = active, 0 (no) = inactive

ITEM SMILES: Cc1ccc2c(Nc3cccc(Cl)c3F)ncc(NC(=O)c3csc4c(N)ncnc34)c2c1
ASSAYED TARGET: HCT-116 colon
QUALITATIVE LABEL: 1 (yes)
--
ITEM SMILES: COc1cc2c(c(OC)c1OC)-c1ccc(SC)c(=O)cc1[C@@H](NCc1cccc(C#N)c1)CC2
ASSAYED TARGET: HCT-116 colon
QUALITATIVE LABEL: 1 (yes)
--
ITEM SMILES: CC1(C)N=C(N)N=C(N)N1c1cccc(CCCCc2ccccc2)c1
ASSAYED TARGET: HCT-116 colon
QUALITATIVE LABEL: 1 (yes)

Ask: Outcome? COc1cc2ccnc3c2c(c1OC)-c1ccc(=O)ccc1-3
Result: 0 (no)

Ask: Then COc1ccc(OC)c(C#Cc2ccc(OC)c(C(=O)NCCc3ccc(F)cc3)c2)c1 ?
Result: 0 (no)

---

I'd be grateful if you could share measured TGI for these entries.
test system: MALME-3M melanoma; test: NCI tumour cell line growth inhibition, 48 h

Observe how each entry below is paired with its result.
COMPOUND: O=C(Cc1ccccc1)NNc1nc(NNC(=O)c2ccncc2)nc(Nc2ccccc2)n1
ASSAYED TARGET: MALME-3M melanoma
VALUE: > 10 µM
//
COMPOUND: COc1cc(C(=O)C/C(CCC(=O)Nc2ccc(Cl)cc2Cl)=N/NC(=O)C(N)=O)ccc1O
ASSAYED TARGET: MALME-3M melanoma
VALUE: > 100 µM
//
COMPOUND: CCC[CH2][Ge]([CH2]CCC)([CH2]CCC)[O]C(=O)C(OC)c1ccccc1 (stereo not given)
ASSAYED TARGET: MALME-3M melanoma
VALUE: > 100 µM
//
COMPOUND: CC1(C)CC(OCCCC[P+](c2ccccc2)(c2ccccc2)c2ccccc2)CC(C)(C)N1O
ASSAYED TARGET: MALME-3M melanoma
VALUE: 1.07 µM

Would you kindly look at the next entry?
Ask: Value lookup for TGI; key = C/C1=C\[C@H](C)C[C@H](C)OC(=O)C[C@H](c2ccc(O)cc2)NC(=O)[C@H](Cc2ccc(O)c(Br)c2)N(C)C(=O)[C@H](C)NC(=O)[C@@H](C)C1
Result: > 25 µM

---

tested on: HOP-92 NSCLC; assay: NCI tumour cell line growth inhibition, 48 h
I'd be grateful if you could share measured TGI for these entries.

COMPOUND: CCOC(=O)CCC(C(=O)OCC)n1nnc2ccc(Nc3c(C)[n+]([O-])c4cc(Cl)ccc4[n+]3[O-])cc21 (stereo unspecified)
VALUE: 38.7 µM
--
COMPOUND: CC(C)[Si](OC1=C(C(=O)N(C)c2ccccc2Cl)CCCC1)(C(C)C)C(C)C
VALUE: 26.3 µM
--
COMPOUND: Fc1ccc(-c2nnc3sc(COc4ccccc4Cl)nn23)cc1Cl
VALUE: > 100 µM
--
COMPOUND: COC(=O)[C@@H]1C2OC(C)(C)OC2CN1C(=O)OCc1ccccc1 (stereo partly specified)
VALUE: > 100 µM
--
COMPOUND: COc1ccc2[nH]c(=O)c(/C=C/C(=O)/C=C/c3ccc(O)c(OC)c3)cc2c1
VALUE: 5.06 µM

Below are some compounds; for each one, tell me its TGI.
1. C[n+]1ccc(-c2cc[n+](C)cc2)cc1
2. O=C1CSC(c2ccc(Cl)cc2)N1c1ccc(-c2ccc(-n3c(-c4ccccc4)nc4ccccc4c3=O)cc2)cc1 (stereo unspecified)
3. Cc1c(C(=O)/C=C/c2ccccc2Cl)[n+](=O)c2ccccc2n1[O-]
4. COc1ccc2c(c1)CC[C@@H]1[C@@H]2CC[C@]2(C)C(=O)/C(=C/c3ccncc3)C[C@@H]12
5. C[C@H]1[C@H](C)CC[C@]2(C(=O)O)CC[C@]3(C)C(=CC[C@@H]4[C@@]5(C)CC[C@H](OC(=O)/C=C/c6ccc(O)cc6)C(C)(C)[C@@H]5CC[C@]43C)[C@H]12

Result:
["> 63.6 µM", "97.9 µM", "28.7 µM", "77.9 µM", "37.2 µM"]

Below are some compounds; for each one, tell me its TGI.
1. O=C(/C=C\c1ccccc1)Oc1ccc(/C=C2\CCCCC2=O)cc1
2. Cn1c(=O)c2c(nc(N)n2C2OC(CO)C(O)C2O)n(C)c1=O (stereo unspecified)
3. O=C1c2ccccc2-c2n[nH]c3cccc1c23

Result:
["> 100 µM", "> 100 µM", "> 100 µM"]

Attribution: PubChem BioAssay (NCI)
